Target: T1, human ROR2 expressed on the cell surface (human, UniProt Q01974 34-943)
T1 construct: Endogenous ROR2 of human tumour cell lines; also called cell surface ROR2; ROR2 on tumour cell lines
T1 sequence (Q01974 34-943 limits assumed): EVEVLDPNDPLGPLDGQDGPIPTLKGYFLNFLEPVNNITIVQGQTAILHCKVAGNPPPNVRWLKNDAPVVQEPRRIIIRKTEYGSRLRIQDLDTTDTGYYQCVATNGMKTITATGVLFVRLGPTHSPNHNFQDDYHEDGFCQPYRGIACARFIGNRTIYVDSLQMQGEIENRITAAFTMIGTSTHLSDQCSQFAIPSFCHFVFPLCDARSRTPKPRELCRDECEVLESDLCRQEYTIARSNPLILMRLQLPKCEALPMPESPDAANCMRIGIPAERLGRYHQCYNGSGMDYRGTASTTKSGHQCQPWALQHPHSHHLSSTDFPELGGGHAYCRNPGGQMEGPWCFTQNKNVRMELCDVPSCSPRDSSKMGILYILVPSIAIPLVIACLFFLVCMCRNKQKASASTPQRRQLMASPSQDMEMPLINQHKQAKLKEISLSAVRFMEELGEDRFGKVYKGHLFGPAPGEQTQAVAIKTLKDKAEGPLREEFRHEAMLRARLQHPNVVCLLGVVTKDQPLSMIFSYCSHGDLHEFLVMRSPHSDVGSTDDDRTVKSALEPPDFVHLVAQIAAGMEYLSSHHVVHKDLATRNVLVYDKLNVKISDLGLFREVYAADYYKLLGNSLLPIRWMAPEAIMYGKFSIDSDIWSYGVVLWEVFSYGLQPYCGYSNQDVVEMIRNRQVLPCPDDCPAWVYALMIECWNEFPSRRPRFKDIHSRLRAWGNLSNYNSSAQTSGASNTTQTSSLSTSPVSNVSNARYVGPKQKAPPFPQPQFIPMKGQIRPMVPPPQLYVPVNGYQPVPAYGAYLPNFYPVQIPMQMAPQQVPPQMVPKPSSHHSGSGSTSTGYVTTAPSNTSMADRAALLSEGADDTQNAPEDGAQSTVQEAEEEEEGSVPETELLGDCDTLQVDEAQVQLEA
Assay: flow cytometry, CRL1427 cells (osteosarcoma)
Set-up: unit not given here
Attribute: binding intensity

Observe how each entry below is paired with its result.
{"columns": ["BINDER", "binding intensity"],
 "data": [
  ["ROR2-240 full length human IgG1 antibody (antibody, V domains shown, also called clone #240 IgG1) VH: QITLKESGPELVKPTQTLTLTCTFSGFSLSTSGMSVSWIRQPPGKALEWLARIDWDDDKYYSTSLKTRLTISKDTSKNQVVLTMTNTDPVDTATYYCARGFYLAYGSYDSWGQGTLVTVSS VL: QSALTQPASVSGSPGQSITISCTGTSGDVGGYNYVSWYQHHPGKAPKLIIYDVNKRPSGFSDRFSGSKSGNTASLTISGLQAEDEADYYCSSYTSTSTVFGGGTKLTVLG", 4],
  ["ROR2-27 full length human IgG1 antibody (antibody, V domains shown, also called clone #27; clone #027 IgG1) VH: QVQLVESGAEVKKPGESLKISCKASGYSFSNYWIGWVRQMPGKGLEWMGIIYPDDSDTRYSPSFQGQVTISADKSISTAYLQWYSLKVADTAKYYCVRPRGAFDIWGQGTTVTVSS VL: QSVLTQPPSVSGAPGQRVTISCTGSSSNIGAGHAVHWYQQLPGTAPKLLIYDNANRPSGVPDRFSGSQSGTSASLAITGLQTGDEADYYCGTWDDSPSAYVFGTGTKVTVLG", 11],
  ["ROR2-90 full length human IgG1 antibody (antibody, V domains shown, also called clone #90; antibody #90) VH: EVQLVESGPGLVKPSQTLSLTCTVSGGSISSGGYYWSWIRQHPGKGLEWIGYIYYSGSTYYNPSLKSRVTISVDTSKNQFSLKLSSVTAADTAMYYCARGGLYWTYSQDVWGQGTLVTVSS VL: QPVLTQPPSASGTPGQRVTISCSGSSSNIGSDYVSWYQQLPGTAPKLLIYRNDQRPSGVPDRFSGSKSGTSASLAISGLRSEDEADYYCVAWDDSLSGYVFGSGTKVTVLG", 45],
  ["ROR2-23 full length human IgG1 antibody (antibody, V domains shown, The light chain of clone 023 is labelled kappa; also called clone #23; clone #023 IgG1) VH: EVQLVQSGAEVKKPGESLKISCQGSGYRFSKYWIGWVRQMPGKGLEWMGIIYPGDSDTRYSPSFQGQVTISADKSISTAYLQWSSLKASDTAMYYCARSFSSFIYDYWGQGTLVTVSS VL: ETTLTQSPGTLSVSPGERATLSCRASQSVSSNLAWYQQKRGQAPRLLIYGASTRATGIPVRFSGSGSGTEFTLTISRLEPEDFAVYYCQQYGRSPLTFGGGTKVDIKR", 30]
]}

For the next question, use this binder.
// ROR2-241 full length human IgG1 antibody (antibody, V domains shown) VH: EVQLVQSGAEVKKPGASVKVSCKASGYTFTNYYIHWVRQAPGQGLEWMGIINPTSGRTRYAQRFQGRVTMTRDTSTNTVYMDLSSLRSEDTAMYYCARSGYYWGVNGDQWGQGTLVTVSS VL: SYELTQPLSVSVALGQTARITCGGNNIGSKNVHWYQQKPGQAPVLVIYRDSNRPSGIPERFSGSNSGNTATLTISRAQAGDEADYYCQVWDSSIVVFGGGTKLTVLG : binding intensity value = 54
